- MEASUREMENT PROTOCOL: qHTS assay to identify small molecule agonists of the hypoxia (HIF-1) signaling pathway - cell viability counter screen (AID 1224844); further: nearly all actives have a fitted effect of over 50% in size
- CONDITION: HRE-bla ME-180 viability, CellTiter-Glo luminescence, 17 h; series mostly up to 76.8 µM
Records with an inconclusive call do not appear. The source made the active and inactive calls. The call rests on the fitted dose curve.
Just give me one of these, please: yes (1) for active, no (0) for inactive

What is the recorded call for this molecule in the test? C[C@@H]1CC[C@H]2[C@@H](C)C(=O)O[C@@H]3O[C@@]4(C)CC[C@@H]1[C@]32OO4
no (0)

Called result for O=C(O)C(F)(F)C(F)(F)C(F)(F)C(F)(F)C(F)(F)C(F)(F)C(F)(F)C(F)(F)C(F)(F)F
yes (1)

Lab log entry: COc1cc(CC(C)N)cc2c1OCO2 (configuration not stated) — outcome as called in the assay?
no (0)

Per the assay record, what outcome was assigned to O=C(CBr)Nc1ccc(Cl)cc1C(=O)c1ccccc1F ?
no (0)

Would you mind telling me which call this test gave IC(I)=C(I)I ?
yes (1)

Outcome logged for O=C1C(=O)c2cccc3cccc1c23 in this assay:
no (0)

Lab note: next molecule to report on.
Check the results log: what was the call for O=C1NCN(c2ccccc2)C12CCN(CCCOc1ccc(F)cc1)CC2 ?
no (0)

Origin of values: PubChem BioAssay (Tox21)
